Source listed as ChEMBL document CHEMBL1147759.

# SUBJECT OF TEST: Peroxisome proliferator-activated receptor alpha (Homo sapiens)
# Sequence (Q07869 whole entry): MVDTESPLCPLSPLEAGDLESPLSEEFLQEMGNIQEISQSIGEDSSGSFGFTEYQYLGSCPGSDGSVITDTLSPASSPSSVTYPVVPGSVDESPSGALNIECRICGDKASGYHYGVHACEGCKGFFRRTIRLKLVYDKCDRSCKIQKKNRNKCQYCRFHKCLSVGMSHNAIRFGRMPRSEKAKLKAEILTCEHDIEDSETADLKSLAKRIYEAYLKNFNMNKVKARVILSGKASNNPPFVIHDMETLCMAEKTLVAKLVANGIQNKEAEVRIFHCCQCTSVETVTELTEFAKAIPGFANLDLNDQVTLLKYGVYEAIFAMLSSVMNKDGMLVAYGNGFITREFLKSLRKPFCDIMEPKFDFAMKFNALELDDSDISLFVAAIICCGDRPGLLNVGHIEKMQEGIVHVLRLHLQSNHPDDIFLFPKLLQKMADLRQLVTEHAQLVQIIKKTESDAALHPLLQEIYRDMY
# RUN DESCRIPTION: Activity against PPAR alpha in human by FRET assay
QUANTITY KIND: EC50 (nM)

Name the recorded EC50 for CCC(C(=O)O)C1CCc2cc(OCCc3nc(-c4c(F)cccc4F)oc3C)ccc21 (centres undefined) .
523

Another compound: CCC(C(=O)O)C1CCc2cc(OCCc3nc(-c4ccc(C)cc4)oc3C)ccc21 (centres undefined)
65

Same for CCOC(=O)C(C(=O)O)C1CCc2cc(OCCc3nc(-c4ccccc4)oc3C)ccc21 (centres undefined)
308

Thanks! And CCC(C(=O)O)C1CCc2cc(OCCc3nc(-c4ccco4)oc3C)ccc21 (centres undefined) ?
745

Cool, now CCC(C(=O)O)C1CCc2cc(OCCc3nc(-c4ccc(F)cc4)oc3C)ccc21 (stereo in doubt)
37

1 = CCC(C(=O)O)C1CCc2cc(OCCc3noc(-c4ccccc4)n3)ccc21 (centres undefined)
2 = CCC(C(=O)O)C1CCc2cc(OCCc3nc(-c4ccccc4)oc3C)ccc21 (centres undefined)
3 = CCC(C(=O)O)C1CCc2cc(OCCc3nc(-c4cccc(C)c4)oc3C)ccc21 (centres undefined)
4 = CCCCc1ccc(-c2nc(CCOc3ccc4c(c3)CCC4C(CC)C(=O)O)c(C)o2)cc1 (centres undefined)
Order field: EC50 | Direction: descending (largest first) Record the ranking as a list of labels in the requested order.
1, 3, 2, 4

1 = CCC(C(=O)O)C1CCc2cc(OCCc3nc(-c4ccc(OC)c(OC)c4)oc3C)ccc21 (centres undefined)
2 = Cc1oc(-c2ccccc2)nc1CCOc1ccc2c(c1)CCC2C(C)(C)C(=O)O (centres undefined)
3 = CCC(C(=O)O)C1CCc2cc(OCCc3nc(-c4ccccc4)oc3C)c(Br)cc21 (centres undefined)
Sort ascending by EC50. List labels; respect the requested ordering.
3, 1, 2
(3: 181 nM, 1: 1130 nM, 2: 6000 nM)

P = Cc1oc(-c2ccccc2)nc1CCOc1ccc2c(c1)CCC2C(C)C(=O)O (centres undefined)
Q = CC[C@H](C(=O)O)[C@@H]1CCc2cc(OCCc3nc(-c4ccccc4)oc3C)ccc21
R = CCC(C(=O)O)C1CCc2cc(OCCc3nc(-c4ccccc4C)oc3C)ccc21 (centres undefined)
S = CCC(C(=O)O)C1CCc2cc(OCCc3nc(-c4ccc(C(C)C)cc4)oc3C)ccc21 (centres undefined)
Reorder: EC50, max to min. Put the labels in the requested order and list them out.
P, R, S, Q
(P: 1000 nM, R: 637 nM, S: 119 nM, Q: 62 nM)

###

# SUBJECT OF TEST: Peroxisome proliferator-activated receptor gamma (Homo sapiens)
# Sequence (P37231 whole entry): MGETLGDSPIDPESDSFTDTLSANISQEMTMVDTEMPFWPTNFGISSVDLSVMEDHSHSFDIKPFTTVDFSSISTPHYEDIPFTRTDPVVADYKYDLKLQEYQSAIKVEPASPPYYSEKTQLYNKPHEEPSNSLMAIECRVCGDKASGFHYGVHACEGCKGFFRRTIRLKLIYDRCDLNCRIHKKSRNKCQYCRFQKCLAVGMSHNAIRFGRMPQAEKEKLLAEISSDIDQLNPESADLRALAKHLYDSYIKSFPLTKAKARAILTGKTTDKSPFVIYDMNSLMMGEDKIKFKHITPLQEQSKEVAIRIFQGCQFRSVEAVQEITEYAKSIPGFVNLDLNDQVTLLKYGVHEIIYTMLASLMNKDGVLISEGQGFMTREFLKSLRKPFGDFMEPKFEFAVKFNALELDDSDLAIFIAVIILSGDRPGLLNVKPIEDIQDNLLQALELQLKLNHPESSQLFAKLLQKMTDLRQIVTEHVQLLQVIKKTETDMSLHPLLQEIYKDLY
# RUN DESCRIPTION: Activity against PPAR gamma in human by FRET assay
QUANTITY KIND: EC50 (nM)

Form field - read-out: EC50; system: Peroxisome proliferator-activated receptor gamma (Homo sapiens); submitted item: CCC(C(=O)O)C1CCc2cc(OCCc3nc(COc4ccc(Cl)cc4)oc3C)ccc21 (stereo unspecified)
104

I = CCOC(=O)C(C(=O)O)C1CCc2cc(OCCc3nc(-c4ccccc4)oc3C)ccc21 (stereo unspecified)
II = CCC(C(=O)O)C1CCc2cc(OCCc3nc(-c4ccccc4C)oc3C)ccc21 (stereo unspecified)
Select one: I or II . Criterion: greater recorded EC50. Give the chosen item's label as your response.
II

###

# SUBJECT OF TEST: Peroxisome proliferator-activated receptor alpha (Homo sapiens, UniProt Q07869)
# Sequence (Q07869 whole entry): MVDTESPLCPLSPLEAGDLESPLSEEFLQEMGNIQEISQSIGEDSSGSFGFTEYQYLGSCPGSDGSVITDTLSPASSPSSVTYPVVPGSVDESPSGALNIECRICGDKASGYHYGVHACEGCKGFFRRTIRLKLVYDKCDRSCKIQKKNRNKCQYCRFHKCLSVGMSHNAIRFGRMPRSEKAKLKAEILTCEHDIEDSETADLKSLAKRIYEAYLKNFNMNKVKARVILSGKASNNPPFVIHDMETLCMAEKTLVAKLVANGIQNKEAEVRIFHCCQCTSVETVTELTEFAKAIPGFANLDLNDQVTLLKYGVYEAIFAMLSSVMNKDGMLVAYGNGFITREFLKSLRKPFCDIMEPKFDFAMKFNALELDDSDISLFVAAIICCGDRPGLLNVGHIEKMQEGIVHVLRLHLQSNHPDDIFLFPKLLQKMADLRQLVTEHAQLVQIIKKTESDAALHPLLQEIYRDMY
# RUN DESCRIPTION: Activity against PPAR alpha in human by FRET assay
QUANTITY KIND: EC50 (nM)

Which EC50 value is on record for CCC(C(=O)O)C1CCc2cc(OCCc3nc(-c4cc(C(F)(F)F)cc(C(F)(F)F)c4)oc3C)ccc21 (stereo not drawn) ?
1170

Field entry: CC[C@@H](C(=O)O)[C@@H]1CCc2cc(OCCc3nc(-c4ccc(C)cc4)oc3C)ccc21
1520

Note, next up: CCC(C(=O)O)C1CCc2cc(OCCc3nc(Cc4ccccc4)oc3C)ccc21 (stereo not drawn)
718

###

# SUBJECT OF TEST: Peroxisome proliferator-activated receptor gamma (Homo sapiens)
# RUN DESCRIPTION: Activity against PPAR gamma in human by FRET assay
QUANTITY KIND: EC50 (nM)

The following compounds have reported results that may help.
Give EC50 (Peroxisome proliferator-activated receptor gamma (Homo sapiens)) of the following compound: CCC(C(=O)O)C1CCc2cc(OCCc3nc(-c4ccc(Cl)c(Cl)c4)oc3C)ccc21 (stereo in doubt; 66)
94

Follow-up entry: CC[C@@H](C(=O)O)[C@H]1CCc2cc(OCCc3nc(-c4ccccc4)oc3C)ccc21
605

How about this compound: COC(C(=O)O)C1CCc2cc(OCCc3nc(-c4ccccc4)oc3C)ccc21 (configuration not stated)
45

Thanks! And CCC(C(=O)O)C1CCc2cc(OCCc3nc(Cc4ccccc4)oc3C)ccc21 (configuration not stated) ?
330

Queued: CCC(C(=O)O)C1CCc2cc(OCCc3coc(-c4ccccc4)n3)ccc21 (configuration not stated)
306

a = CCC(C(=O)O)C1CCc2cc(OCCc3nc(-c4ccc(C)c(F)c4)oc3C)ccc21 (configuration not stated)
b = CCC(C(=O)O)C1CCc2cc(OCCc3nc(-c4cccc(C(F)(F)F)c4)oc3C)ccc21 (configuration not stated)
Higher EC50 between a and b ? # respond with the chosen item's label
a
(a: 43 nM, b: 21 nM)

###

# SUBJECT OF TEST: Peroxisome proliferator-activated receptor alpha (Homo sapiens)
# RUN DESCRIPTION: Activity against PPAR alpha in human by FRET assay
QUANTITY KIND: EC50 (nM)

The following compounds have reported results that may help.
Need EC50, item CC[C@H](C(=O)O)[C@@H]1CCc2cc(OCCc3nc(-c4ccc(F)cc4)oc3C)ccc21
94

Same thing, different compound: CCC(C(=O)O)C1CCc2cc(OCCc3nc(-c4ccc5c(c4)OCC5)oc3C)ccc21 (stereo not drawn)
65

And CC[C@H](C(=O)O)[C@H]1CCc2cc(OCCc3nc(-c4ccc(C)cc4)oc3C)ccc21 ?
48

Try this compound too: CCCC(C(=O)O)C1CCc2cc(OCCc3nc(-c4ccccc4)oc3C)ccc21 (stereo not drawn)
3890

Another compound to check: CCC(C(=O)O)C1CCc2cc(OCCc3nc(C4CCCCC4)oc3C)ccc21 (stereo not drawn)
111

1 = CCC(C(=O)O)C1CCc2cc(OCCc3nc(-c4ccccc4)sc3C)ccc21 (stereo not drawn)
2 = CCC(C(=O)O)C1CCc2cc(OCCc3nc(Cc4ccc(F)cc4)oc3C)ccc21 (stereo not drawn)
Hello, I am sorting some records. Could you say if 1 or 2 has the smaller EC50 value? In your reply, give the label of the chosen option.
2
(2: 204 nM, 1: 979 nM)
